Tested on: 521955-158-R2-J5-PDC complex spheroid viability;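 further: spheroids exposed to agents for seven days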
Assay: Anticancer human tumor 521955-158-R2-J5-PDC patient-derived pancreatic carcinoma cell line growth inhibition; active means viability on the fitted dose curve at most 10% of control; inactive means the rest
Conditions: second compound 3.16 µM; first compound 10 µM
Could you please pick one outcome from this set? active, inactive

Prompt line: Identify the outcome logged in this assay for the compound shown: CC(C)c1c(-c2ccccc2)nc2c(C#N)c[nH]n2c1=O + NC1CC1c1ccc(-c2cccc(O)c2)cc1
Response line: inactive

Prompt line: Identify the outcome logged in this assay for the compound shown: CC1(C)CCC(CN2CCN(c3ccc(C(=O)NS(=O)(=O)c4ccc(NCC5CCOCC5)c([N+](=O)[O-])c4)c(Oc4cnc5[nH]ccc5c4)c3)CC2)=C(c2ccc(Cl)cc2)C1 + NC1CC1c1ccc(-c2cccc(O)c2)cc1
Response line: active

Prompt line: Identify the outcome logged in this assay for the compound shown: O=C(c1cc(Cc2n[nH]c(=O)c3ccccc23)ccc1F)N1CCN(C(=O)C2CC2)CC1 + NC1CCC(NC2CC2c2ccccc2)CC1
Response line: inactive

Prompt line: Identify the outcome logged in this assay for the compound shown: COc1ccc([C@@H](O)c2cc(-c3ncnc4cc(N5CCOCC5)ccc34)c(F)cc2Cl)nn1 + NC1CCC(NC2CC2c2ccccc2)CC1
Response line: inactive
